These measurements were taken from paper PMC2807882.

- Test System: T1, ΔNp73β (Homo sapiens, UniProt O15350-9 1-450)
- T1 sequence: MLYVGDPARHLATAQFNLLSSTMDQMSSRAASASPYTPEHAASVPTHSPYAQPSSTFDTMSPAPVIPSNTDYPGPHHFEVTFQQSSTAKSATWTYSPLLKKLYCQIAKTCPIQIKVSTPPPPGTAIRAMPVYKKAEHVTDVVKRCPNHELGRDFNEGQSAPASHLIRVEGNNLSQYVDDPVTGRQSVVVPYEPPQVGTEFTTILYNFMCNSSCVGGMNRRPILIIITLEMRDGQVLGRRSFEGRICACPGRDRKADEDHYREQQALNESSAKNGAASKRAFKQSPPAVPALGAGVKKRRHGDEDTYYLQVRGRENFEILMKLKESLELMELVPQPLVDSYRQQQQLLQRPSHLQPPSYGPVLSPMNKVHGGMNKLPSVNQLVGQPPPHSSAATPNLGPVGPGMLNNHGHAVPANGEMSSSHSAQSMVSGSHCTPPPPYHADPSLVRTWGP
- Measurement Description: fluorescence anisotropy competition titration; 25 mM sodium phosphate (purification buffer pH 7.2), 225 mM NaCl, 10% v/v glycerol, 5 mM DTT, 0.2 mg/mL BSA, 22 C
- Protocol Conditions: protein: recombinant; tags: N-terminal 6xHis-lipoyl-TEV tag, cleaved; chain copies: 4
Readout Kind: Kd (nM)

>>> reading("Ref competitor (dsDNA) DNA 1: CGCGGACATGTCCGGACATGTCCCGC DNA 2: GCGGGACATGTCCGGACATGTCCGCG")
24
